Kindly state melting point for each of the entries shown.
Hey, just the number and the unit after it is fine.

Entry CC(COc1ccccc1)N(CCCl)Cc1ccccc1 (centres undefined) : reported melting point = ?
39 °C

Entry Oc1ccc(Nc2ccccc2)cc1 : reported melting point = ?
73 °C

Entry N#Cc1ccc(-c2ccc(C#N)cc2)cc1 : reported melting point = ?
238 °C

Entry Nc1cnn(-c2ccccc2)c(=O)c1Br : reported melting point = ?
224 °C

Entry CCN1C(=O)c2ccccc2C1Nc1ccc(OCCN2CCCCC2)cc1 (centres undefined) : reported melting point = ?
106 °C

Entry O=c1sc2ccccc2c(O)c1C1CC(c2ccc(-c3ccc(Br)cc3)cc2)Cc2ccccc21 (centres undefined) : reported melting point = ?
234 °C

Entry O=C(Cl)c1cccc(F)c1 : reported melting point = ?
-30 °C

Entry Fc1ccccc1-c1ccccc1 : reported melting point = ?
73.5 °C

Entry O=C(O)CCCC(=O)c1ccccc1 : reported melting point = ?
127 °C

Entry CC1(C)C(C=C(Cl)Cl)C1C(=O)OCc1cccc(Oc2ccccc2)c1 (centres undefined) : reported melting point = ?
34 °C

Entry NC(=O)c1ccc([N+](=O)[O-])cc1Cl : reported melting point = ?
172 °C

Entry c1ccc2c(c1)c1cccc3ccc4cccc2c4c31 : reported melting point = ?
178 °C

Entry CCC(C)C(C)(C)CC (centres undefined) : reported melting point = ?
-101 °C

Entry c1ccc(-c2ncoc2-c2ccccc2)cc1 : reported melting point = ?
44 °C

Entry C/C=C(/C)C(=O)O[C@H]1CCN2CC=C(COC(=O)[C@](O)([C@H](C)OC)C(C)(C)O)[C@H]12 : reported melting point = ?
95 °C

Entry CCOC(=O)C(Br)C(C)Br (centres undefined) : reported melting point = ?
58.5 °C

Entry NC(=O)C1CCN(CCCN2c3ccccc3Sc3ccc(Cl)cc32)CC1 : reported melting point = ?
139 °C

Entry CC(C)c1ccccc1C(C)C : reported melting point = ?
-57 °C

Entry COC(=O)c1cc(C)ccc1O : reported melting point = ?
-1 °C

---

Kindly state boiling point for each of the entries shown.
# unit: °C | format: bare number

Entry Cc1cccc2c1CCC2 : reported boiling point = ?
205

Entry C=C(C)C=O : reported boiling point = ?
68.4

Entry CC1=NCCN1 : reported boiling point = ?
196

Entry CCC(C)C(C)(C)CC (stereo not drawn) : reported boiling point = ?
140

Entry FC(F)(F)C(F)(F)Cl : reported boiling point = ?
-37.9

Entry O=CF : reported boiling point = ?
-26.5

Entry C=C1CC(=O)O1 : reported boiling point = ?
126

Entry C=CC(Cl)CCl (stereo not drawn) : reported boiling point = ?
116

Entry Ic1ccccc1 : reported boiling point = ?
188

Entry CCN(CC)C(=O)N(CC)CC : reported boiling point = ?
209

Entry CCCCC(CC)CN (stereo not drawn) : reported boiling point = ?
169

Entry FC(F)(F)CI : reported boiling point = ?
54.5

Entry Oc1cc(Cl)c(Cl)cc1Cl : reported boiling point = ?
247

Entry Cc1cccc(C)c1N : reported boiling point = ?
215

Entry CCOC(=O)C(F)(F)C(F)(F)C(F)(F)F : reported boiling point = ?
95

Entry Cc1cccc(C(=O)c2ccccc2)c1 : reported boiling point = ?
317

Entry C=CC(=O)OCC(C)C : reported boiling point = ?
132

Entry CCC(C)OC(C)=O (stereo not drawn) : reported boiling point = ?
112

Entry CC1=CC(=O)C(C(C)C)CC1 (stereo not drawn) : reported boiling point = ?
233

Entry C=CC(=O)OCC(CC)CCCC (stereo not drawn) : reported boiling point = ?
214

Entry Brc1ccc(Br)cc1 : reported boiling point = ?
218

Entry COP(=O)(O)OC : reported boiling point = ?
174

Entry Cc1ccc(C)c2ccccc12 : reported boiling point = ?
268

Entry Cc1ccc(C#N)cc1 : reported boiling point = ?
217

Entry CC1CCCCC1 : reported boiling point = ?
101

Entry CC(C)CSCC(C)C : reported boiling point = ?
171

Entry CCC(C)CCC(C)CC (stereo not drawn) : reported boiling point = ?
161

Entry C=C(C)C(=O)CC : reported boiling point = ?
118

Entry CCCC(=O)Cl : reported boiling point = ?
102

Entry ClC(Cl)=CBr : reported boiling point = ?
108

Entry CCCCCCCCCCCCCCCC1CCCCC1 : reported boiling point = ?
373

Entry c1ccc2nc3ccccc3cc2c1 : reported boiling point = ?
346

Entry CC(C)COC(=O)CCCCC(=O)OCC(C)C : reported boiling point = ?
279

Entry CC(C)(C)N=C=S : reported boiling point = ?
140

Entry CCCCCC(O)CCCCC : reported boiling point = ?
228

Entry CN(C)c1ccccn1 : reported boiling point = ?
196

Entry C[Si](C)(C)N[Si](C)(C)C : reported boiling point = ?
125

Entry CCCCCCCCC#N : reported boiling point = ?
224

Entry CCCCCCCCCC(=O)OC : reported boiling point = ?
224

Entry NCc1ccncc1 : reported boiling point = ?
230

Entry C=CC(C)CC (stereo not drawn) : reported boiling point = ?
54.2

Entry C=C(C)C(C)(C)C : reported boiling point = ?
77.9

Entry CCC(C)(C)CC(C)(C)C : reported boiling point = ?
154

Entry OCC1CCCCC1 : reported boiling point = ?
183

Entry CCCCN(CCCC)CCCN : reported boiling point = ?
205

Entry CCC(C(C)=O)C(C)=O : reported boiling point = ?
178

Entry Cc1cccc(C)c1 : reported boiling point = ?
139

Entry CCOC(=O)c1ccc(OC)c(OC)c1 : reported boiling point = ?
296

Entry Fc1cc(F)cc(F)c1 : reported boiling point = ?
75.5

Entry CCCCCC(CO)CCC (stereo not drawn) : reported boiling point = ?
218

Entry Cc1cccc(Oc2ccccc2)c1 : reported boiling point = ?
272

Entry COc1ccc(F)cc1 : reported boiling point = ?
157

Entry CC(C)(C)c1ccc(Br)cc1 : reported boiling point = ?
232

Entry CCCOCC(C)OCC(C)O (stereo not drawn) : reported boiling point = ?
212

Entry N#CCCO : reported boiling point = ?
221

Entry C=CC#CC=C : reported boiling point = ?
85

Entry S=C=NCc1ccccc1 : reported boiling point = ?
243

Entry CCC(C)COC (stereo not drawn) : reported boiling point = ?
90

---

melting point strictly under 100 °C means criterion met; at 100 °C or over means criterion not met.

Please state whether melting point is below 100 °C for C=C1CC(=O)OC1=O
criterion met

Please state whether melting point is below 100 °C for COc1ccc(C(=NCc2ccccc2)c2ccc(OC)cc2)cc1
criterion met

Please state whether melting point is below 100 °C for O=[N+]([O-])c1ccc(Sc2ccc([N+](=O)[O-])cc2)cc1
criterion not met

Please state whether melting point is below 100 °C for Cc1cc(OC(=O)N(C)C)nn1C(=O)N(C)C
criterion met

Please state whether melting point is below 100 °C for CNC(C)Cc1ccc(O)cc1 (stereo unspecified)
criterion not met

Please state whether melting point is below 100 °C for Nc1ccc(F)cc1F
criterion met

Please state whether melting point is below 100 °C for O=C1OC2(c3ccccc31)c1ccc(O)c(Br)c1Oc1c2ccc(O)c1Br
criterion not met

Please state whether melting point is below 100 °C for Nc1cccc([N+](=O)[O-])c1
criterion not met

Please state whether melting point is below 100 °C for N#Cc1ccccc1Cl
criterion met

Please state whether melting point is below 100 °C for O=C=Nc1ccccc1[N+](=O)[O-]
criterion met

Please state whether melting point is below 100 °C for CCCCOCCOCCOCCCC
criterion met

---

Kindly state boiling point for each of the entries shown.

Entry C[C@@H]1CCC[C@H](C)N1 : reported boiling point = ?
127 °C

Entry CCC(=O)OCC(C)C : reported boiling point = ?
137 °C

Entry CCCCCCCBr : reported boiling point = ?
179 °C

Entry CCC(C)(C)Cl : reported boiling point = ?
85.5 °C

Entry CCCCCCCCCCCCCCCCO : reported boiling point = ?
334 °C

Entry c1cnc2c(c1)CCCC2 : reported boiling point = ?
222 °C

Entry C1CN2CCN1CC2 : reported boiling point = ?
174 °C

Entry Clc1ccccn1 : reported boiling point = ?
170 °C

Entry COC(=O)c1ccccc1C(=O)c1ccccc1 : reported boiling point = ?
351 °C

Entry O=[N+]([O-])c1cc(F)cc(F)c1 : reported boiling point = ?
176 °C

Entry FC(F)(F)C(F)(Cl)C(F)(F)Cl (stereo unspecified) : reported boiling point = ?
34.1 °C

Entry OC[C@@H]1CCCN2CCCC[C@H]12 : reported boiling point = ?
270 °C

Entry Cc1cccc2c1ccc1cc(C(C)C)ccc12 : reported boiling point = ?
390 °C

Entry CCC(=O)C=C(C)CC : reported boiling point = ?
166 °C

Entry CCOC(=O)CS : reported boiling point = ?
157 °C

Entry c1ccc(-c2ccncc2)nc1 : reported boiling point = ?
281 °C

Entry C1=COCCO1 : reported boiling point = ?
94.1 °C

Entry Oc1ccc(Cl)c(Cl)c1 : reported boiling point = ?
253 °C

Entry FC(Br)(Br)Br : reported boiling point = ?
108 °C

Entry Cc1ccc(C(=O)Cl)cc1 : reported boiling point = ?
226 °C

Entry CC(C)C(=O)OCCc1ccccc1 : reported boiling point = ?
250 °C

Entry Cc1ccc2cccnc2c1 : reported boiling point = ?
258 °C

Entry C=Cc1ccc(CC)cc1 : reported boiling point = ?
192 °C

Entry C=Cc1ccco1 : reported boiling point = ?
99.5 °C

Entry CC1CC(C)CC(O)C1 (stereo unspecified) : reported boiling point = ?
187 °C

Entry C=C(C)CC(C)O (stereo unspecified) : reported boiling point = ?
129 °C
